# Ki values compiled below
- target.system: 5-hydroxytryptamine receptor 7 (Homo sapiens)
- Sequence (P34969 whole entry): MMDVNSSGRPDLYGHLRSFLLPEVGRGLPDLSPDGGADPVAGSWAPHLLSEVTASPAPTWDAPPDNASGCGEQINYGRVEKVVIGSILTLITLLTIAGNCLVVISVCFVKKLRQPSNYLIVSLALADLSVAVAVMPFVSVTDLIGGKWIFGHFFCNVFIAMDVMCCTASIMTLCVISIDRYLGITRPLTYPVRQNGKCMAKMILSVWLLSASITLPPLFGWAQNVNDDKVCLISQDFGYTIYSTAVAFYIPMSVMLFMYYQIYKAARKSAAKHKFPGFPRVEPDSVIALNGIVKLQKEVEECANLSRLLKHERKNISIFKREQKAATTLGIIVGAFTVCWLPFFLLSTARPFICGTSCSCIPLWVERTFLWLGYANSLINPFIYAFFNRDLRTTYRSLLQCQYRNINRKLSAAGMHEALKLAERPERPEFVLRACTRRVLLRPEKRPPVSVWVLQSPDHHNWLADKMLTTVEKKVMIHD
- experimental.protocol: Binding affinity to 5-HT7 receptor (unknown origin) assessed as inhibition constant

{"columns": ["smiles", "Ki [nM]"],
 "data": [
  ["COc1cccc(N2CCN(CCCCn3ncc(=O)n(C)c3=O)CC2)c1", 12.9],
  ["COc1cccc(S(=O)(=O)N2CCC[C@@H]2CCN2CCC(C)CC2)c1", 18]
]}

* * *

- experimental.protocol: In vivo binding affinity of Papio anubis baboon 5-HT2C assessed as inhibition constant measured after 1 to 21 mins postinjection
- Assay type: functional, organism-based

{"columns": ["smiles", "Ki, nM"],
 "data": [
  ["[11CH3]N1CCc2nc3ccnn3c(N3CCC3)c2CC1", 161]
]}
